These data points were gathered from the supplement of paper PMC5998384.

Catalogue of solubility in G1/S (log2) values
# Tested on: HeLa Kyoto
# EXPERIMENT_SUMMARY: solubility in G1/S (NP-40 vs SDS abundance) (log2 ratio); higher = more soluble
# CONDITION_LABEL: cell cycle stage: G1/S

Worked cases, solubility in G1/S (log2) given:
Query: For HeLa Kyoto, provide solubility in G1/S (log2) of APOBEC3B please.
Reply: -0.745

Query: Same again, this time with MAAAAEERMAEEGGGGQGDGGSSLASGSTQRQPPPPAPQHPQPGSQALPAPALAPDQLPQNNTLVALPIVAIENILSFMSYDEISQLRLVCKRMDLVCQRMLNQGFLKVERYHNLCQKQVKAQLPRRESERRNHSLARHADILAAVETRLSLLNMTFMKYVDSNLCCFIPGKVIDEIYRVLRYVNSTRAPQRAHEVLQELRDISSMAMEYFDEKIVPILKRKLPGSDVSGRLMGSPPVPGPSAALTTMQLFSKQNPSRQEVTKLQQQVKTNGAGVTVLRREISELRTKVQEQQKQLQDQDQKLLEQTQIIGEQNARLAELERKLREVMESAVGNSSGSGQNEESPRKRKKATEAIDSLRKSKRLRNRK [FBXO28]
Reply: 0.375

Query: Same again, this time with MAASRLELNLVRLLSRCEAMAAEKRDPDEWRLEKYVGALEDMLQALKVHASKPASEVINEYSWKVDFLKGMLQAEKLTSSSEKALANQFLAPGRVPTTARERVPATKTVHLQSRARYTSEMRSELLGTDSAEPEMDVRKRTGVAGSQPVSEKQLAAELDLVLQRHQNLQEKLAEEMLGLARSLKTNTLAAQSVIKKDNQTLSHSLKMADQNLEKLKTESERLEQHTQKSVNWLLWAMLIIVCFIFISMILFIRIMPKLK [USE1]
Reply: 0.00595

Query: Same again, this time with MDVNIAPLRAWDDFFPGSDRFARPDFRDISKWNNRVVSNLLYYQTNYLVVAAMMISIVGFLSPFNMILGGIVVVLVFTGFVWAAHNKDVLRRMKKRYPTTFVMVVMLASYFLISMFGGVMVFVFGITFPLLLMFIHASLRLRNLKNKLENKMEGIGLKRTPMGIVLDALEQQEEGINRLTDYISKVKE [ARL6IP5]
Reply: -0.0879

Continuing:
Query: For HeLa Kyoto, provide solubility in G1/S (log2) of MASTSRLDALPRVTCPNHPDAILVEDYRAGDMICPECGLVVGDRVIDVGSEWRTFSNDKATKDPSRVGDSQNPLLSDGDLSTMIGKGTGAASFDEFGNSKYQNRRTMSSSDRAMMNAFKEITTMADRINLPRNIVDRTNNLFKQVYEQKSLKGRANDAIASACLYIACRQEGVPRTFKEICAVSRISKKEIGRCFKLILKALETSVDLITTGDFMSRFCSNLCLPKQVQMAATHIARKAVELDLVPGRSPISVAAAAIYMASQASAEKRTQKEIGDIAGVADVTIRQSYRLIYPRAPDLFPTDFKFDTPVDKLPQL [GTF2B] please.
Reply: 0.251

Query: Same again, this time with RABGAP1
Reply: -0.122

###

# System: HeLa Kyoto
# EXPERIMENT_SUMMARY: melting temperature (median over replicates), in situ; higher = more thermally stable
# CONDITION_LABEL: cell cycle stage: G1/S
PROPERTY_LABEL: melting temperature (°C)
I only need the number, in °C, no unit after it.

Worked cases, melting temperature given:
Query: Record request: melting temperature value, item MSDAAVDTSSEITTKDLKEKKEVVEEAENGRDAPANGNAENEENGEQEADNEVDEEEEEGGEEEEEEEEGDGEEEDGDEDEEAESATGKRAAEDDEDDDVDTKKQKTDEDD [PTMA]
Reply: 54.9

Query: Same again, this time with MGCFFSKRRKADKESRPENEEERPKQYSWDQREKVDPKDYMFSGLKDETVGRLPGTVAGQQFLIQDCENCNIYIFDHSATVTIDDCTNCIIFLGPVKGSVFFRNCRDCKCTLACQQFRVRDCRKLEVFLCCATQPIIESSSNIKFGCFQWYYPELAFQFKDAGLSIFNNTWSNIHDFTPVSGELNWSLLPEDAVVQDYVPIPTTEELKAVRVSTEANRSIVPISRGQRQKSSDESCLVVLFAGDYTIANARKLIDEMVGKGFFLVQTKEVSMKAEDAQRVFREKAPDFLPLLNKGPVIALEFNGDGAVEVCQLIVNEIFNGTKMFVSESKETASGDVDSFYNFADIQMGI [RP2]
Reply: 51.6

Query: Same again, this time with MSVFGKLFGAGGGKAGKGGPTPQEAIQRLRDTEEMLSKKQEFLEKKIEQELTAAKKHGTKNKRAALQALKRKKRYEKQLAQIDGTLSTIEFQREALENANTNTEVLKNMGYAAKAMKAAHDNMDIDKVDELMQDIADQQELAEEISTAISKPVGFGEEFDEDELMAELEELEQEELDKNLLEISGPETVPLPNVPSIALPSKPAKKKEEEDDDMKELENWAGSM [CHMP4B]
Reply: 55

Query: Same again, this time with MPAHLLQDDISSSYTTTTTITAPPSRVLQNGGDKLETMPLYLEDDIRPDIKDDIYDPTYKDKEGPSPKVEYVWRNIILMSLLHLGALYGITLIPTCKFYTWLWGVFYYFVSALGITAGAHRLWSHRSYKARLPLRLFLIIANTMAFQNDVYEWARDHRAHHKFSETHADPHNSRRGFFFSHVGWLLVRKHPAVKEKGSTLDLSDLEAEKLVMFQRRYYKPGLLMMCFILPTLVPWYFWGETFQNSVFVATFLRYAVVLNATWLVNSAAHLFGYRPYDKNISPRENILVSLGAVGEGFHNYHHSFPYDYSASEYRWHINFTTFFIDCMAALGLAYDRKKVSKAAILARIKRTGDGNYKSG [SCD]
Reply: 50.5

Continuing:
Query: Record request: melting temperature value, item MKPSGEDQAALAAGPWEECFQAAVQLALRAGQIIRKALTEEKRVSTKTSAADLVTETDHLVEDLIISELRERFPSHRFIAEEAAASGAKCVLTHSPTWIIDPIDGTCNFVHRFPTVAVSIGFAVRQELEFGVIYHCTEERLYTGRRGRGAFCNGQRLRVSGETDLSKALVLTEIGPKRDPATLKLFLSNMERLLHAKAHGVRVIGSSTLALCHLASGAADAYYQFGLHCWDLAAATVIIREAGGIVIDTSGGPLDLMACRVVAASTREMAMLIAQALQTINYGRDDEK [IMPA2]
Reply: 58.2

###

# System: HeLa Kyoto
# EXPERIMENT_SUMMARY: thermal stability score vs G1/S (z-score of summed log2 fold changes over temperatures); higher = more thermally stable than in G1/S
# CONDITION_LABEL: cell cycle stage: early G1 (4.5 h after nocodazole release)
Use 1.0 when the recorded thermal stability score is no lower than -2; use 0.0 when it is lower.

Query: Has MAELRVLVAVKRVIDYAVKIRVKPDRTGVVTDGVKHSMNPFCEIAVEEAVRLKEKKLVKEVIAVSCGPAQCQETIRTALAMGADRGIHVEVPPAEAERLGPLQVARVLAKLAEKEKVDLVLLGKQAIDDDCNQTGQMTAGFLDWPQGTFASQVTLEGDKLKVEREIDGGLETLRLKLPAVVTADLRLNEPRYATLPNIMKAKKKKIEVIKPGDLGVDLTSKLSVISVEDPPQRTAGVKVETTEDLVAKLKEIGRI [ETFB] a recorded thermal stability score greater than or equal to -2?
Reply: 1.0

Query: Same again, this time with MAVELGVLLVRPRPGTGLGRVMRTLLLVLWLATRGSALYFHIGETEKKCFIEEIPDETMVIGNYRTQLYDKQREEYQPATPGLGMFVEVKDPEDKVILARQYGSEGRFTFTSHTPGEHQICLHSNSTKFSLFAGGMLRVHLDIQVGEHANDYAEIAAKDKLSELQLRVRQLVEQVEQIQKEQNYQRWREERFRQTSESTNQRVLWWSILQTLILVAIGVWQMRHLKSFFEAKKLV [TMED9]
Reply: 1.0

Query: Same again, this time with MAPLDLDKYVEIARLCKYLPENDLKRLCDYVCDLLLEESNVQPVSTPVTVCGDIHGQFYDLCELFRTGGQVPDTNYIFMGDFVDRGYYSLETFTYLLALKAKWPDRITLLRGNHESRQITQVYGFYDECQTKYGNANAWRYCTKVFDMLTVAALIDEQILCVHGGLSPDIKTLDQIRTIERNQEIPHKGAFCDLVWSDPEDVDTWAISPRGAGWLFGAKVTNEFVHINNLKLICRAHQLVHEGYKFMFDEKLVTVWSAPNYCYRCGNIASIMVFKDVNTREPKLFRAVPDSERVIPPRTTTPYFL [PPP6C]
Reply: 1.0

Query: Same again, this time with MSESSSKSSQPLASKQEKDGTEKRGRGRPRKQPPVSPGTALVGSQKEPSEVPTPKRPRGRPKGSKNKGAAKTRKTTTTPGRKPRGRPKKLEKEEEEGISQESSEEEQ [HMGA1]
Reply: 0.0

Continuing:
Query: Has MSMEDPFFVVKGEVQKAVNTAQGLFQRWTELLQDPSTATREEIDWTTNELRNNLRSIEWDLEDLDETISIVEANPRKFNLDATELSIRKAFITSTRQVVRDMKDQMSTSSVQALAERKNRQALLGDSGSQNWSTGTTDKYGRLDRELQRANSHFIEEQQAQQQLIVEQQDEQLELVSGSIGVLKNMSQRIGGELEEQAVMLEDFSHELESTQSRLDNVMKKLAKVSHMTSDRRQWCAIAILFAVLLVVLILFLVL [STX6] a recorded thermal stability score greater than or equal to -2?
Reply: 1.0
